# credit: patent US9132136B2

This listing pairs molecules with measured EC50.
target: mouse TAAR1 (Mus musculus); construct: expressed in transfected cells; experiment: In vitro functional activity (cAMP assay) at mouse TAAR1 receptor in recombinant HEK293 cells; type: cell-based; settings: HEK293 cells expressing mouse TAAR1, cAMP assay; read-out: EC50
Sequence (Q923Y8 whole entry): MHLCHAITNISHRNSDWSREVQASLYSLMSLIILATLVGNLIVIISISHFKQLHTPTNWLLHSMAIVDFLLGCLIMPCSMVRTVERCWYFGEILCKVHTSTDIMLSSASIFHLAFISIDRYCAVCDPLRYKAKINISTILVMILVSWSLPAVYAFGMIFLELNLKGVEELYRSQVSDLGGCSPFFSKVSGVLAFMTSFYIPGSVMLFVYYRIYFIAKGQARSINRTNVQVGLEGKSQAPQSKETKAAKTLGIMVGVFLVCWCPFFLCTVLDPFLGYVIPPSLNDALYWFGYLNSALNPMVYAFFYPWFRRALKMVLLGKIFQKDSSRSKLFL
Counter-ions that a name gives are not always drawn.
The reply should contain only the number, in nM.

For orientation, consider the following solved cases.
• N#Cc1cccc(NC(=O)Nc2ccc([C@H]3CNCCO3)cc2)c1 [Example S16, hydrochloride] = 0.4
• C[C@H](OC[C@H]1COC(N)=N1)c1ccc(F)cc1 = 1.7
• O=C(Nc1ccc(C2CCNC2)cc1)Nc1ccc(Cl)cn1 (racemic) [Example S7, hydrochloride] = 0.8

Which measured EC50 value corresponds to Cc1cc(C(=O)Nc2ccc([C@@H]3CNCCO3)cc2)cc(Cl)n1 [Example S12, hydrochloride] ?
3.1
